Reference source: the OligoGym collection

- Assayed Target: DENND5A
- Assay Procedure: reporter assay of Huesken 2005; note: test concentration or dose not given here
- Test Conditions: siRNA
Oligonucleotides are written 5' to 3', each unit as a sugar letter and its base; * is a phosphorothioate linkage, no mark a phosphodiester; rarer units and linkages stand in square brackets, end groups in braces. Plain capitals give the bases only. d = 2'-deoxy (DNA); r = 2'-OH (RNA)
Assay Readout: normalised inhibition (eCFP-eYFP dual reporter)
// return the numeric value with its unit appended

Query: Which measured normalised inhibition (eCFP-eYFP dual reporter) belongs to sense rCrArGrArUrCrUrGrCrArGrUrGrCrArArUrGrCdTdT / antisense rGrCrArUrUrGrCrArCrUrGrCrArGrArUrCrUrGdCdT , tested on DENND5A?
Response: 56.3%

Query: Which measured normalised inhibition (eCFP-eYFP dual reporter) belongs to sense rGrArArUrGrGrGrArArCrArUrUrGrCrUrGrGrCdTdT / antisense rGrCrCrArGrCrArArUrGrUrUrCrCrCrArUrUrCdCdT , tested on DENND5A?
Response: 45.3%

Query: Which measured normalised inhibition (eCFP-eYFP dual reporter) belongs to sense rCrArCrArUrGrCrArCrArArUrGrCrUrGrArGrUdTdT / antisense rArCrUrCrArGrCrArUrUrGrUrGrCrArUrGrUrGdGdT , tested on DENND5A?
Response: 69.6%

----------
- Assayed Target: SOST
- Assay Procedure: reporter assay of Huesken 2005
- Test Conditions: siRNA
Oligonucleotides are given in HELM: sugar(base)linkage, 5' to 3'; d 2'-deoxyribose, r ribose, m 2'-O-methylribose, p phosphate. ss, as = sense and antisense strand
Assay Readout: normalised inhibition (eCFP-eYFP dual reporter)

Query: Find the recorded normalised inhibition (eCFP-eYFP dual reporter) belonging to RNA1{r(G)p.r(G)p.r(A)p.r(G)p.r(C)p.r(U)p.r(C)p.r(A)p.r(A)p.r(G)p.r(G)p.r(A)p.r(C)p.r(U)p.r(U)p.r(C)p.r(G)p.r(G)p.r(G)p.d(T)p.d(T)}|RNA2{r(C)p.r(C)p.r(C)p.r(G)p.r(A)p.r(A)p.r(G)p.r(U)p.r(C)p.r(C)p.r(U)p.r(U)p.r(G)p.r(A)p.r(G)p.r(C)p.r(U)p.r(C)p.r(C)p.d(G)p.d(A)}$$$RNA1{StrandType:ss}|RNA2{StrandType:as}$ and report it.
Response: 75%

Query: Find the recorded normalised inhibition (eCFP-eYFP dual reporter) belonging to RNA1{r(G)p.r(A)p.r(A)p.r(C)p.r(G)p.r(G)p.r(A)p.r(G)p.r(G)p.r(G)p.r(C)p.r(G)p.r(G)p.r(C)p.r(C)p.r(U)p.r(C)p.r(C)p.r(C)p.d(T)p.d(T)}|RNA2{r(G)p.r(G)p.r(G)p.r(A)p.r(G)p.r(G)p.r(C)p.r(C)p.r(G)p.r(C)p.r(C)p.r(C)p.r(U)p.r(C)p.r(C)p.r(G)p.r(U)p.r(U)p.r(C)p.d(T)p.d(C)}$$$RNA1{StrandType:ss}|RNA2{StrandType:as}$ and report it.
Response: 52.6%

Query: Find the recorded normalised inhibition (eCFP-eYFP dual reporter) belonging to RNA1{r(G)p.r(G)p.r(U)p.r(G)p.r(A)p.r(G)p.r(G)p.r(C)p.r(G)p.r(C)p.r(C)p.r(G)p.r(C)p.r(G)p.r(C)p.r(G)p.r(C)p.r(G)p.r(C)p.d(T)p.d(T)}|RNA2{r(G)p.r(C)p.r(G)p.r(C)p.r(G)p.r(C)p.r(G)p.r(C)p.r(G)p.r(G)p.r(C)p.r(G)p.r(C)p.r(C)p.r(U)p.r(C)p.r(A)p.r(C)p.r(C)p.d(A)p.d(C)}$$$RNA1{StrandType:ss}|RNA2{StrandType:as}$ and report it.
Response: 26%
